Entry source: paper PMC9645390

Molecular target: Aβ42 oligomers (Homo sapiens, UniProt P05067)
Construct: 1 mg of commercial Aβ42 monomer powder (from GL biochem) was dissolved in 1; purchased GL biochem
Sequence (P05067 672-713 limits assumed): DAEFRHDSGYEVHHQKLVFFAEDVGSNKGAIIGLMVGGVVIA
Assay: Fluorescence saturation binding assay with Aβ42 oligomers
Details: Aβ42 oligomers; from cross point between plateau and initial slope
Endpoint Name: binding ratio, Oligomers

// solved cases for binding ratio, Oligomers follow
COc1cc(-c2ccc(/C=C/c3ccc(N(C)C)cc3)s2)cc(CN2CCN(C)CCN(C)CC2)c1O | 10.2
CN1CCN(C)CCN(Cc2cc(-c3ccc(/C=C/c4ccc(N(C)C)cc4)s3)ccc2O)CC1 | 1.0

[a] COc1cc(OC)cc(-c2ccc(/C=C/c3ccc(O)c(CN4CCN(C)CCN(C)CC4)c3)cc2)c1
[b] CN1CCN(C)CCN(Cc2cc(-c3ccc(/C=C/c4ccc(N(C)C)cc4)s3)cc(CN3CCN(C)CCN(C)CC3)c2O)CC1
(Q) Select one: a or b . Criterion: greater recorded binding ratio, Oligomers. Mark your selection by writing its label.
(A) b

* * *

Target: Aβ42 fibrils (Homo sapiens)
Construct: 1 mg of commercial Aβ42 monomer powder (from GL biochem) was dissolved in 1; purchased GL biochem
Sequence (P05067 672-713 limits assumed): as above
Test: Fluorescence saturation binding assay with Aβ42 fibrils
Conditions: Aβ42 fibrils; 10 mM PBS pH 7.4; one site-specific binding model; read-out: Kd, Fibrils
pKd: −log10 of the molar value.
Endpoint Name: pKd

CN1CCN(C)CCN(Cc2cc(-c3ccc(/C=C/c4ccc(N(C)C)cc4)s3)cc(CN3CCN(C)CCN(C)CC3)c2O)CC1 | 5.86

[A] CN1CCN(C)CCN(Cc2cc(/C=C/c3ccc(-c4ccc(C=O)cc4)s3)cc(CN3CCN(C)CCN(C)CC3)c2O)CC1
[B] COc1cc(OC)cc(-c2ccc(/C=C/c3cc(CN4CCN(C)CCN(C)CC4)c(O)c(CN4CCN(C)CCN(C)CC4)c3)cc2)c1
(Q) Hi! Which is lower in terms of pKd, the first one A or the second one B ? Mark your selection by writing its label.
(A) B

* * *

Experiment: Alamar Blue cytotoxicity assay in N2a cells
Format: cell-based, mouse
Conditions: mouse, N2a (Neuro2A) neuroblastoma cells, at 5 μM, 40 h, read-out: cell viability
Endpoint Name: viability at 40 h, 5 µM

viability at 40 h, 5 µM in this record for COc1cc(-c2ccc(/C=C/c3ccc(N(C)C)cc3)s2)cc(CN2CCN(C)CCN(C)CC2)c1O : > 75%

* * *

Target: Aβ42 oligomers (Homo sapiens)
Construct: 1 mg of commercial Aβ42 monomer powder (from GL biochem) was dissolved in 1; purchased GL biochem
Assay: Fluorescence saturation binding assay with Aβ42 oligomers
Conditions: Aβ42 oligomers; from cross point between plateau and initial slope
Recorded binding ratio, Oligomers for the following compounds
Number only, no unit.

// solved cases for binding ratio, Oligomers follow
COc1cc(/C=C/c2ccc(-c3ccc(C=O)cc3)s2)cc(CN2CCN(C)CCN(C)CC2)c1O | 8.1
COc1cc(/C=C/c2ccc(-c3ccc(N(C)C)cc3)s2)cc(CN2CCN(C)CCN(C)CC2)c1O | 4.0
COc1cc(OC)cc(-c2ccc(/C=C/c3cc(CN4CCN(C)CCN(C)CC4)c(O)c(CN4CCN(C)CCN(C)CC4)c3)cc2)c1 | 33.3

Attention now shifts to the item below.
binding ratio, Oligomers in this record for CN1CCN(C)CCN(Cc2cc(/C=C/c3ccc(-c4ccc(C=O)cc4)s3)ccc2O)CC1 : 2.5
